These entries and their values trace back to ChEMBL document CHEMBL2417469.

Overview of recorded GI50 for various molecules
test system: CAKI-1; assay: Cytotoxicity against human Caki1 cells after 48 hrs by SRB assay; type: functional; details: CAKI-1, 48 h
Please reply with the bare figure in nM and do not write the unit itself.

Example molecules with recorded GI50:
- molecule: "COc1cc(C2CC(c3cccc(Nc4ccnc5cc(Cl)ccc45)c3)=NN2C=O)cc(OC)c1OC (stereo not given)"
  target.or.test.system: "CAKI-1"
  measured.attribute: "GI50"
  recorded.number: 550
- molecule: "O=CN1N=C(c2cccc(Nc3ccnc4cc(Cl)ccc34)c2)CC1c1ccccc1 (stereo not given)"
  target.or.test.system: "CAKI-1"
  measured.attribute: "GI50"
  recorded.number: 330

Q. Fill in the blank: the reported GI50 of COc1ccc(C2CC(c3cccc(Nc4ccnc5cc(Cl)ccc45)c3)=NN2C=O)cc1 (stereo not given) is ____.
A. 330

* * *

system: SF-539; test: Cytotoxicity against human SF539 cells after 48 hrs by SRB assay; format: functional; conditions: SF-539, 48 h
Binary call on GI50 with cut-off 600 nM: strictly below means class 1, and equality or higher means class 0.

Past entries and their recorded results:
- compound: "COc1ccc(C2CC(c3ccc(Nc4ccnc5cc(Cl)ccc45)cc3)=NN2C=O)cc1 (stereo unspecified)"
  group.label: "class 0"
- compound: "CC(=O)N1N=C(c2ccc(Nc3ccnc4cc(Cl)ccc34)cc2)CC1c1ccc(Cl)cc1 (stereo unspecified)"
  group.label: "class 0"
- compound: "O=CN1N=C(c2cccc(Nc3ccnc4cc(Cl)ccc34)c2)CC1c1ccc(Cl)cc1 (stereo unspecified)"
  group.label: "class 0"
- compound: "O=CN1N=C(c2cccc(Nc3ccnc4cc(Cl)ccc34)c2)CC1c1ccccc1 (stereo unspecified)"
  group.label: "class 1"
- compound: "COc1cc(C2CC(c3cccc(Nc4ccnc5cc(Cl)ccc45)c3)=NN2C=O)cc(OC)c1OC (stereo unspecified)"
  group.label: "class 0"

Q. In the record for COc1cc(C2CC(c3ccc(Nc4ccnc5cc(Cl)ccc45)cc3)=NN2C=O)cc(OC)c1OC (stereo unspecified) , is GI50 less than 600 nM?
A. class 0

Q. is_below(GI50, 600 nM) for O=CN1N=C(c2ccc(Nc3ccnc4cc(Cl)ccc34)cc2)CC1c1ccccc1 (stereo unspecified) ?
A. class 0

Q. I'd appreciate it if you could check whether Cc1ccc(C2CC(c3ccc(Nc4ccnc5cc(Cl)ccc45)cc3)=NN2C=O)cc1 (stereo unspecified) has GI50 smaller than 600 nM.
A. class 0

Q. # TODO verify GI50 < 600 nM strictly for this compound: O=CN1N=C(c2ccc(Nc3ccnc4cc(Cl)ccc34)cc2)CC1c1ccc(Cl)cc1 (stereo unspecified)
A. class 1

Q. Dear colleague, could you confirm whether GI50 of COc1cccc2c1C(=O)c1c(O)c3c(c(O)c1C2=O)C[C@@](O)(C(=O)CO)C[C@@H]3O[C@H]1C[C@H](N)[C@H](O)[C@H](C)O1 [DOXORUBICIN] falls below 600 nM? Thanks.
A. class 1

* * *

tested on: LOX IMVI; test: Cytotoxicity against human LOXIMVI cells after 48 hrs by SRB assay; type: functional
measured.attribute: LC50 (µM)
Answer format: numeric, µM implied, no suffix.

- molecule: "COc1ccc(C2CC(c3cccc(Nc4ccnc5cc(Cl)ccc45)c3)=NN2C=O)cc1 (stereo not given)"
  target.or.test.system: "LOX IMVI"
  LC50 (µM): 6.7
- molecule: "COc1cc(C2CC(c3ccc(Nc4ccnc5cc(Cl)ccc45)cc3)=NN2C=O)cc(OC)c1OC (stereo not given)"
  target.or.test.system: "LOX IMVI"
  LC50 (µM): 7.83
- molecule: "O=CN1N=C(c2cccc(Nc3ccnc4cc(Cl)ccc34)c2)CC1c1ccccc1 (stereo not given)"
  target.or.test.system: "LOX IMVI"
  LC50 (µM): 4.23
- molecule: "O=CN1N=C(c2cccc(Nc3ccnc4cc(Cl)ccc34)c2)CC1c1ccc(Cl)cc1 (stereo not given)"
  target.or.test.system: "LOX IMVI"
  LC50 (µM): 50.4

Then this molecule:
Q. Please look up its LC50: O=CN1N=C(c2ccc(Nc3ccnc4cc(Cl)ccc34)cc2)CC1c1ccccc1 (stereo not given)
A. 6.88
